Provide the recorded Erosions for the entries that follow.
- System: Rattus norvegicus
- experiment.notes: Erosions of tarsal bones measured radiographically after 42 days initial immunization with type II collagen in rats at a dose of 200 mg/kg
- Type: functional
// return a plain number; no unit text

## Task For the molecule shown here, CC(C)(S)[C@@H](N)C(=O)O [PENICILLAMINE] , give the reported Erosions.
## Result 2.83

## Task For the molecule shown here, C[C@]12C=CC(=O)C=C1CCC1[C@@H]2[C@@H](O)C[C@@]2(C)[C@H]1CC[C@]2(O)C(=O)CO (single isomer, unassigned) [PREDNISOLONE] , give the reported Erosions.
## Result 3.5

## Task For the molecule shown here, COc1ccc2c(c1)c(CC(=O)O)c(C)n2C(=O)c1ccc(Cl)cc1 [INDOMETHACIN] , give the reported Erosions.
## Result 2.94

## Task For the molecule shown here, CCCCC1C(=O)N(c2ccccc2)N(c2ccccc2)C1=O [PHENYLBUTAZONE] , give the reported Erosions.
## Result 3.33

---

- Test system: Rattus norvegicus
- experiment.notes: Cartilage space narrowing was measured radiographically after 42 days initial immunization with type II collagen in rats at a dose of 200 mg/kg
- Assay type: functional
Provide the recorded Cartilage space for the entries that follow.
// return a plain number; no unit text

## Task For the compound shown here, "COc1ccc2c(c1)c(CC(=O)O)c(C)n2C(=O)c1ccc(Cl)cc1" , give the reported Cartilage space.
## Result 2.94

## Task For the compound shown here, C[C@]12C=CC(=O)C=C1CCC1[C@@H]2[C@@H](O)C[C@@]2(C)[C@H]1CC[C@]2(O)C(=O)CO (single isomer, unassigned) , give the reported Cartilage space.
## Result 3.27

## Task For the compound shown here, "CC(C)(S)[C@@H](N)C(=O)O" , give the reported Cartilage space.
## Result 2.72

## Task For the compound shown here, "CCCCC1C(=O)N(c2ccccc2)N(c2ccccc2)C1=O" , give the reported Cartilage space.
## Result 2.86

---

Provide the recorded Mean paw diameter for the entries that follow.
- Tested on: Rattus norvegicus
- experiment.notes: Paw diameter measured with a micrometer caliper after 42 days initial immunization with type II collagen in rats at a dose of 200 mg/kg
- Format: functional
Form field: result (number plus unit)

## Task For the molecule shown here, C[C@]12C=CC(=O)C=C1CCC1[C@@H]2[C@@H](O)C[C@@]2(C)[C@H]1CC[C@]2(O)C(=O)CO (single isomer, unassigned) [PREDNISOLONE] , give the reported Mean paw diameter.
## Result 7.92 mm

## Task For the molecule shown here, COc1ccc2c(c1)c(CC(=O)O)c(C)n2C(=O)c1ccc(Cl)cc1 [INDOMETHACIN] , give the reported Mean paw diameter.
## Result 8 mm

## Task For the molecule shown here, CCCCC1C(=O)N(c2ccccc2)N(c2ccccc2)C1=O [PHENYLBUTAZONE] , give the reported Mean paw diameter.
## Result 8.42 mm

## Task For the molecule shown here, CC(C)(S)[C@@H](N)C(=O)O [PENICILLAMINE] , give the reported Mean paw diameter.
## Result 8.89 mm
